B1: library; a variant is named by its letters at N, in order (parent)
chain: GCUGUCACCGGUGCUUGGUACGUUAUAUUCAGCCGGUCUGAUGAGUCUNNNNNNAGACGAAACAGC

- Variants of: B1
- measurement.description: normalized RNA/DNA level with ligand (relative to sTRSVctl = 100) (log10 (% of sTRSVctl)); HEK293T overexpressing SLC46A1; ligand concentration (+) RNA-Seq: 6 mM; higher = less ribozyme self-cleavage, higher mRNA level
- condition.parameters: with (6R,S)-folinic acid; ligand present: yes
measured.metric: normalized RNA/DNA level with ligand (log10)

In [3]: df
Out[3]:
                               sequence_code  experimental_result
 0  GCUGUCACCGGUGCUUGGUACGUUAUAUUCAGCCGGUCUGAUGAGUCUCCGGUUAGACGAAACAGC [CCGGUU]                 2.01
 1  GCUGUCACCGGUGCUUGGUACGUUAUAUUCAGCCGGUCUGAUGAGUCUAGCUGCAGACGAAACAGC [AGCUGC]                 2.05
 2  GCUGUCACCGGUGCUUGGUACGUUAUAUUCAGCCGGUCUGAUGAGUCUUAAUUCAGACGAAACAGC [UAAUUC]                 2.02
 3  GCUGUCACCGGUGCUUGGUACGUUAUAUUCAGCCGGUCUGAUGAGUCUGGGGAUAGACGAAACAGC [GGGGAU]                 2.03
 4  GCUGUCACCGGUGCUUGGUACGUUAUAUUCAGCCGGUCUGAUGAGUCUUUUGUUAGACGAAACAGC [UUUGUU]                 1.99
 5  GCUGUCACCGGUGCUUGGUACGUUAUAUUCAGCCGGUCUGAUGAGUCUCGAGAGAGACGAAACAGC [CGAGAG]                 1.96
 6  GCUGUCACCGGUGCUUGGUACGUUAUAUUCAGCCGGUCUGAUGAGUCUGUGCUGAGACGAAACAGC [GUGCUG]                 2.05
 7  GCUGUCACCGGUGCUUGGUACGUUAUAUUCAGCCGGUCUGAUGAGUCUCUGGCAAGACGAAACAGC [CUGGCA]                 1.98
 8  GCUGUCACCGGUGCUUGGUACGUUAUAUUCAGCCGGUCUGAUGAGUCUGUCAUCAGACGAAACAGC [GUCAUC]                 2.01
 9  GCUGUCACCGGUGCUUGGUACGUUAUAUUCAGCCGGUCUGAUGAGUCUCACUCCAGACGAAACAGC [CACUCC]                 2.02
10  GCUGUCACCGGUGCUUGGUACGUUAUAUUCAGCCGGUCUGAUGAGUCUGGGCUUAGACGAAACAGC [GGGCUU]                  2.1
11  GCUGUCACCGGUGCUUGGUACGUUAUAUUCAGCCGGUCUGAUGAGUCUGACGUAAGACGAAACAGC [GACGUA]                 2.03
12  GCUGUCACCGGUGCUUGGUACGUUAUAUUCAGCCGGUCUGAUGAGUCUGGUCGAAGACGAAACAGC [GGUCGA]                 2.01
13  GCUGUCACCGGUGCUUGGUACGUUAUAUUCAGCCGGUCUGAUGAGUCUGCUACGAGACGAAACAGC [GCUACG]                 2.06
14  GCUGUCACCGGUGCUUGGUACGUUAUAUUCAGCCGGUCUGAUGAGUCUUACGUGAGACGAAACAGC [UACGUG]                 1.95
15  GCUGUCACCGGUGCUUGGUACGUUAUAUUCAGCCGGUCUGAUGAGUCUAUAACUAGACGAAACAGC [AUAACU]                 2.02
16  GCUGUCACCGGUGCUUGGUACGUUAUAUUCAGCCGGUCUGAUGAGUCUGGUUGUAGACGAAACAGC [GGUUGU]                 2.04
17  GCUGUCACCGGUGCUUGGUACGUUAUAUUCAGCCGGUCUGAUGAGUCUCGGAACAGACGAAACAGC [CGGAAC]                    2
18  GCUGUCACCGGUGCUUGGUACGUUAUAUUCAGCCGGUCUGAUGAGUCUGCUACUAGACGAAACAGC [GCUACU]                 1.98
19  GCUGUCACCGGUGCUUGGUACGUUAUAUUCAGCCGGUCUGAUGAGUCUAUGCCUAGACGAAACAGC [AUGCCU]                 2.02
20  GCUGUCACCGGUGCUUGGUACGUUAUAUUCAGCCGGUCUGAUGAGUCUAGCGGUAGACGAAACAGC [AGCGGU]                    2
21  GCUGUCACCGGUGCUUGGUACGUUAUAUUCAGCCGGUCUGAUGAGUCUGCACUCAGACGAAACAGC [GCACUC]                 2.02
22  GCUGUCACCGGUGCUUGGUACGUUAUAUUCAGCCGGUCUGAUGAGUCUCUAAUUAGACGAAACAGC [CUAAUU]                 2.02
23  GCUGUCACCGGUGCUUGGUACGUUAUAUUCAGCCGGUCUGAUGAGUCUCAAACUAGACGAAACAGC [CAAACU]                 2.01
24  GCUGUCACCGGUGCUUGGUACGUUAUAUUCAGCCGGUCUGAUGAGUCUUCCCUCAGACGAAACAGC [UCCCUC]                 2.05
25  GCUGUCACCGGUGCUUGGUACGUUAUAUUCAGCCGGUCUGAUGAGUCUAAAGCGAGACGAAACAGC [AAAGCG]                 1.99
26  GCUGUCACCGGUGCUUGGUACGUUAUAUUCAGCCGGUCUGAUGAGUCUUCAUAUAGACGAAACAGC [UCAUAU]                 1.98
27  GCUGUCACCGGUGCUUGGUACGUUAUAUUCAGCCGGUCUGAUGAGUCUAGCAUUAGACGAAACAGC [AGCAUU]                 2.01
28  GCUGUCACCGGUGCUUGGUACGUUAUAUUCAGCCGGUCUGAUGAGUCUGACCACAGACGAAACAGC [GACCAC]                    2
29  GCUGUCACCGGUGCUUGGUACGUUAUAUUCAGCCGGUCUGAUGAGUCUCAUAGUAGACGAAACAGC [CAUAGU]                 2.02
30  GCUGUCACCGGUGCUUGGUACGUUAUAUUCAGCCGGUCUGAUGAGUCUAUCCACAGACGAAACAGC [AUCCAC]                 2.02
31  GCUGUCACCGGUGCUUGGUACGUUAUAUUCAGCCGGUCUGAUGAGUCUUCCAGAAGACGAAACAGC [UCCAGA]                    2
